The origin of these recorded values is patent US20190053492A1.

Experiment summary: log P by HPLC on reversed-phase column (C 18), EEC Directive 79/831 Annex V.A8
Assay type: physicochemical
Condition context: log P, neutral range; HPLC on reversed-phase column (C 18), 55° C.
Output TRUE for LOGP_NEUTRAL not less than 4; output FALSE otherwise.

[[record]]
sample_smiles = "N#CCCCCNC(=O)c1cc(-c2ccc(OC(F)(F)F)cc2)cc(NC(=O)C2CC2)n1"
category_label = "FALSE"

[[record]]
sample_smiles = "O=C(NC1CC1)c1cc(-c2ccc(OC(F)(F)F)cc2)cc(NC(=O)C2CC2)n1"
category_label = "FALSE"

[[record]]
sample_smiles = "N#Cc1ccc(CNC(=O)c2cc(-c3ccc(S(F)(F)(F)(F)F)cc3)cc(NC(=O)C3CC3)n2)cc1"
category_label = "TRUE"

[[record]]
sample_smiles = "N#Cc1ccc(CNC(=O)c2cc(-c3ccc(SC(F)F)cc3)cc(NC(=O)C3CC3)n2)cc1"
category_label = "FALSE"

[[record]]
sample_smiles = "O=C(NCc1ccc([N+](=O)[O-])cc1F)c1cc(-c2ccc(OC(F)(F)F)cc2)cc(NC(=O)C2CC2)n1"
category_label = "TRUE"


Exam item: # bool: LOGP_NEUTRAL of N#Cc1ccc(CNC(=O)c2cc(-c3ccc(OC(F)(F)F)cc3)cc(NC(=O)C3CC3)n2)cc1 >= 4
Marked response: FALSE

Exam item: # bool: LOGP_NEUTRAL of NC(=S)c1ccc(CNC(=O)c2cc(-c3ccc(OC(F)(F)F)cc3)cc(NC(=O)C3CC3)n2)cc1 >= 4
Marked response: FALSE
